Give measured pIC50 for each item. Keep answers brief.
# Target System: HLA-DR DRB1*0405 (human)
# Procedure Text: competition with 125I-labeled reference peptide, purified HLA
In plain terms, pIC50 is the concentration in mol/L turned into minus its base-10 logarithm.

Request: # query: pIC50 of entry FNPMIVELAEKTMKE (modifications not checked) [Flu.PA.12]
Result: 5.91

Request: # query: pIC50 of entry QLLLEVEQEIRTFSF (modifications not checked) [Flu.NS2.180]
Result: 5.29

Request: # query: pIC50 of entry ALQLLFEVEQEIRTF (modifications not checked) [Flu.NS2.178]
Result: 5.05

Request: # query: pIC50 of entry RNYFTAEVSHCRATE (modifications not checked) [Flu.PA.446]
Result: 5.24

Request: # query: pIC50 of entry RREVHIYYLEKANKI (modifications not checked) [Flu.PA.127]
Result: 5.83
